- target-of-assay: p50p50 homodimer (Homo sapiens, UniProt P19838 7-356)
- Sequence (P19838 7-356): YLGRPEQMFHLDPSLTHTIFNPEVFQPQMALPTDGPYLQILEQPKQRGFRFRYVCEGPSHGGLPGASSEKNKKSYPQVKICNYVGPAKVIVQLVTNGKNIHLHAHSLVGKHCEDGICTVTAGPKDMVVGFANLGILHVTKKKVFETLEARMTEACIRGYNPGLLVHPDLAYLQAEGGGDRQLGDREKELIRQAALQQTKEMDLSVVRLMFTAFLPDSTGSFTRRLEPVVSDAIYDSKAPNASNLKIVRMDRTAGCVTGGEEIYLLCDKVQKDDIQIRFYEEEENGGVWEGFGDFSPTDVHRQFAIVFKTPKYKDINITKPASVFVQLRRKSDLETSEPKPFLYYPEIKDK
- assay-method-text: protein binding microarray; high values mean tight binding
- experimental-parameters: dsDNA, one strand shown
Assign 1 (yes) whenever binding signal does not fall below -0.03 z-score; assign 0 (no) whenever it does.

Reference set, count: 2
• GAAGATGCCCC = 1 (yes)
• GGAAAGTTCCC = 1 (yes)

Exercise: Could you please find out whether AAAATACCCCT has binding signal that meets -0.03 z-score or exceeds it?
Key: 1 (yes)

Exercise: Consider next the sequence GGGAACGCCCT in the same way.
Key: 0 (no)

Exercise: Consider next the sequence CAGAACCTCCT in the same way.
Key: 0 (no)

Exercise: Consider next the sequence AGAGGCCTCCT in the same way.
Key: 0 (no)

Exercise: Consider next the sequence AGAAGTCTCCT in the same way.
Key: 0 (no)

Exercise: Consider next the sequence AAAATAGTCCT in the same way.
Key: 0 (no)

These measurements were taken from paper PMC3218832.
